Attribution: ChEMBL document CHEMBL1221295

Experimental System: Melatonin receptor type 1B (Homo sapiens)
Method: Intrinsic activity at human cloned MT2 receptor expressed in […] NIH3T3 cells assessed as increase of [35S]GTPgammaS binding relative to melatonin
Type: functional, cell-based
Attribute Measured: Ratio

| Compound | Ratio |
| --- | --- |
| COc1cccc(OCC(C)NC(C)=O)c1 (configuration not stated) | 0.71 |
| CCCC(=O)NCC(C)Oc1cccc(OC)c1 (configuration not stated) | 1.12 |

[A] COc1cccc(SC[C@@H](C)NC(C)=O)c1
[B] CC(=O)NCCOc1ccccc1
[C] COc1cccc(O[C@@H](C)CNC(C)=O)c1
[D] COc1ccccc1OCCNC(C)=O
Highest Ratio first, then in falling order down to the smallest. Labels, requested order.
C, B, A, D
(C: 1.09, B: 0.5, A: 0.32, D: 0.22)
